Origin of values: ChEMBL document CHEMBL5724709

Test system: HEK-293T
test: Incucyte cell viability with HEK293T; further: unitless GR value; below 1 slowed growth and below 0 cell loss
Format: toxicity, cell-based
measurement_setup: human, 24 h, 10 µM, compound concentration 10 uM, replicate number 1
outcome_measure: Growth Rate
One number for each entry.

Some compounds with known Growth Rate results, for comparison:
| molecule | test_value |
| --- | --- |
| COC(=O)C[C@@H]1N=C(c2ccc(Cl)cc2)c2c(sc(C)c2C)-n2c(C)nnc21 | 0.62 |
| Nc1c[nH]c(=O)c2cc(-c3ccccc3)sc12 | 0.88 |
| Cc1ncsc1-c1ccc([C@H](C)NC(=O)[C@@H]2C[C@@H](O)CN2C(=O)[C@@H](NC(=O)CNC(=O)c2ccc(F)c(-c3ccc(N4C[C@@H](C)N(C)[C@@H](C)C4)c(NC(=O)c4c[nH]c(=O)cc4C(F)(F)F)c3)c2)C(C)(C)C)cc1 | 0.6 |

Consider the record given below.
Exercise: Growth Rate for "Cc1cc(/N=N/c2ccc3c(c2)CCC(=O)N3)c(N)cc1O" ?
Solution: 0.63

###

Tested on: U2OS
test: Incucyte cell viability with U2OS; further: unitless GR value; below 1 slowed growth and below 0 cell loss
Assay type: toxicity, cell-based
measurement_setup: human, 24 h, 10 µM, compound concentration 10 uM, replicate number 2
Exam item: assign yes (1) to entries whose Growth Rate is below 0.8 and no (0) to entries at or above 0.8. Note that a value of exactly 0.8 receives no (0).

Exercise: Dear reviewer, please state whether "CCOC(=O)NCCCC(=O)NCCc1ccccc1" has Growth Rate strictly beneath 0.8.
Solution: no (0)

###

System: U2OS
test: Incucyte cell viability with U2OS; further: unitless GR value; below 1 slowed growth and below 0 cell loss
Format: toxicity, cell-based
measurement_setup: human, 24 h, 10 µM, compound concentration 10 uM, replicate number 2
outcome_measure: Growth Rate
Give bare numbers.

| compound | Growth Rate |
| --- | --- |
| CC(=O)N1CCN([C@H]2CCC[C@@H](NC(=O)c3cc4c(F)ccc(C)c4[nH]3)C2)CC1 | 0.93 |
| C=C(C)[C@@H](CC=C(C)C)C[C@@]12C[C@@H](CC=C(C)C)C(C)(C)[C@@](CC=C(C)C)(C(=O)C(C(=O)c3ccc(O)c(O)c3)=C1O)C2=O | 0.75 |
| Cc1ncsc1-c1ccc([C@H](C)NC(=O)[C@@H]2C[C@@H](O)CN2C(=O)[C@@H](NC(=O)CNC(=O)c2ccc(F)c(-c3ccc(N4C[C@@H](C)N(C)[C@@H](C)C4)c(NC(=O)c4c[nH]c(=O)cc4C(F)(F)F)c3)c2)C(C)(C)C)cc1 | 0.89 |

# batch size: 2; output Growth Rate per entry
1. CC(=O)O[C@]1(C(C)=O)CC[C@H]2[C@@H]3C=C(Cl)C4=CC(=O)[C@@H]5C[C@@H]5[C@]4(C)[C@H]3CC[C@@]21C [CYPROTERONE ACETATE]
2. COc1ccc(N(C(=O)Oc2c(C)cccc2C)c2ccnc(Nc3ccc(N4CCN(C)CC4)cc3)n2)c(OC)c1

Solution:
0.72
0.72

Exercise: What value of measured Growth Rate is listed for "C[C@H]1CCCN1Cc1nc2cc(NC(=O)c3ccc4c(cnn4C)c3)ccc2[nH]1" ?
Solution: 0.68

###

Test system: U2OS
test: Incucyte cell viability with U2OS; further: unitless GR value; below 1 slowed growth and below 0 cell loss
Type: toxicity, cell-based
measurement_setup: human, 24 h, 10 µM, compound concentration 10 uM, replicate number 1
outcome_measure: Growth Rate

| compound | Growth Rate |
| --- | --- |
| Cc1ccc(NC2=CC(=O)c3sc(C)nc3C2=O)cc1 | -0.86 |

Quick request: Growth Rate for each listed item, please.
1. CCN1C(C)(C)CC(Oc2ccc(C(=O)Nc3ccc(NC(=O)Nc4cc(C(C)(C)C)on4)cc3)nc2)CC1(C)C
2. C=C(C)[C@@H](CC=C(C)C)C[C@@]12C[C@@H](CC=C(C)C)C(C)(C)[C@@](CC=C(C)C)(C(=O)C(C(=O)c3ccc(O)c(O)c3)=C1O)C2=O [GARCINOL]

Solution:
1. 0.51
2. 1

Exercise: // query Growth Rate value for entry "CN(C)Cc1ccc(S(=O)(=O)n2ccc(/C=C/C(=O)NO)c2)cc1.Cl"
Solution: 0.51
